# Test system: Calu-3
# testDetails: cell viability relative to DMSO; higher = less toxic
# conditionParameters: 72 h; 1000 nM
List of cell viability values.
readoutLabel: cell viability (%)

>>> reported("C[C@H](Nc1cc(NS(=O)(=O)N2CCC2)nc(SCc2cccc(F)c2F)n1)[C@@H](O)CO [SRT3190]")
89.9
>>> reported("CO[C@H]1CC=C2CCN3CCC4=C(CC(=O)OC4)[C@]23C1 [NSC-9965]")
101
>>> reported("O=C(Nc1cnc(Cl)nc1)c1ccc(F)c(F)c1")
95.5
>>> reported("CCCC(=O)Nc1ccc(OCC(O)CNC(C)C)c(C(C)=O)c1 (centres undefined) [acebutolol]")
117
>>> reported("O=C1NN(C(=O)Nc2ccc(Br)cc2)[C@@H](c2ccccc2)[C@@H]1c1ccccc1")
91.2
>>> reported("O=C(NCc1ccc(F)cc1)N1CCN2C(=O)OC(c3ccccc3)(c3ccccc3)[C@@H]2C1 (racemic) [SHA-68]")
100
>>> reported("COc1cc2nc(N3CCN(C(=O)c4ccco4)CC3)nc(N)c2cc1OC [prazosin]")
97.4
>>> reported("CC(C)Oc1ccc(-c2nc(-c3cccc4c3CC[C@H]4NCCC(=O)O)no2)cc1C#N [RP-001]")
101
>>> reported("O=c1ncccn1[C@@H]1O[C@H](CO)[C@@H](O)[C@H]1O [zebularine]")
96.7

* * *

# System: A549-ACE2 infected with SARS-CoV-2
# testDetails: SARS-CoV-2 infection rate relative to DMSO; higher = more infection
# conditionParameters: 0.3 µM; 24 h
List of SARS-CoV-2 infection rate values.
readoutLabel: SARS-CoV-2 infection rate (%)

>>> reported("CC(=O)[O-].CC(=O)[O-].N.NC1CCCCC1.[Cl-].[Cl-].[Pt+4] [satraplatin]")
108
>>> reported("CCCCc1oc2ccc(NS(C)(=O)=O)cc2c1C(=O)c1ccc(OCCCN(CCCC)CCCC)cc1 [dronedarone]")
94
>>> reported("CC(C)n1nc(C#Cc2ccccc2)c2c(N)ncnc21 [SPP86]")
90
>>> reported("CN(C(=O)Cc1ccc(Cl)c(Cl)c1)[C@H](CN1CCCC1)c1ccccc1")
97
>>> reported("CN(C)c1ccc(-c2nc3c(N4CCN(CC(=O)Nc5nccs5)CC4)c(Cl)cnc3[nH]2)cc1")
94

* * *

# Test system: A549-ACE2
# testDetails: drug-induced phospholipidosis relative to tamoxifen; higher = more phospholipidosis
# conditionParameters: 0.3 µM; 24 h
Rule: drug-induced phospholipidosis under 4% gives NOT MET, otherwise MET.

>>> discretelabel("C[C@H](Oc1cc(-c2cnn(C3CCNCC3)c2)cnc1N)c1c(Cl)ccc(F)c1Cl [crizotinib-(S)]")
"MET"
>>> discretelabel("CCN(CC)CCO[C@H]1CC[C@@]2(C)C(=CC[C@@H]3[C@@H]2CC[C@]2(C)C(=O)CC[C@@H]32)C1")
"MET"
>>> discretelabel("COc1cc2ncnc(Nc3cccc(Cl)c3)c2cc1OC")
"NOT MET"
>>> discretelabel("NC(=O)c1noc([C@H](CCCC2CCCCC2)CC(=O)NO)n1")
"MET"
>>> discretelabel("NC1(c2ccc(-c3nc4ccn5c(=O)[nH]nc5c4cc3-c3ccccc3)cc2)CCC1")
"NOT MET"

* * *

List of cell viability values.
# System: Vero E6
# testDetails: cell viability relative to DMSO; higher = less toxic
# conditionParameters: 72 h; 10000 nM
readoutLabel: cell viability (%)

>>> reported("CN1C(C)(C)CCCC1(C)C")
94.4
>>> reported("C/C1=C/C[C@@H](/C(C)=C/c2csc(C)n2)OC(=O)C[C@H](O)C(C)(C)C(=O)[C@H](C)[C@@H](O)[C@@H](C)CCC1")
46.8
>>> reported("CCCCCCCCCCCCCCCCCCN(CCCCCCCCCCCCCCCCCC)CCCN(CCO)CCO")
102
>>> reported("CC(=O)N1CCN(C)CC1")
95.9
>>> reported("NC(=O)[C@H]1CCS[C@@H]2C[C@]3(CCCN3C(=O)Cc3ccc(NC(=O)COc4ccc(Cl)cc4Cl)cc3)C(=O)N12")
86.6
>>> reported("Cc1c(NC(=O)OC[C@@H]2COCCN2)cn2ncnc(Nc3ccc4c(cnn4Cc4cccc(F)c4)c3)c12")
60.7
>>> reported("NCCCNCCCCNCCCN")
106

* * *

# System: A549-ACE2
# testDetails: drug-induced phospholipidosis relative to tamoxifen; higher = more phospholipidosis
# conditionParameters: 0.3 µM; 48 h
readoutLabel: drug-induced phospholipidosis (%)

>>> reported("NC1(Cc2ccc(Cl)cc2)CCN(c2ncnc3[nH]ccc23)CC1")
0.01
>>> reported("OC1=c2ccccc2=C(NC2CCCCC2)/C1=C\\c1ccccc1")
0.98
>>> reported("NC(=O)c1noc([C@H](CCCC2CCCCC2)CC(=O)NO)n1")
4.52
>>> reported("Cc1cccc(/C=N/Nc2cc(N3CCOCC3)n3nc(-c4ccncc4)cc3n2)c1")
105
>>> reported("CCN(CC)CCO[C@H]1CC[C@@]2(C)C(=CC[C@@H]3[C@@H]2CC[C@]2(C)C(=O)CC[C@@H]32)C1")
7.14
>>> reported("NC1(c2ccc(-c3nc4ccn5c(=O)[nH]nc5c4cc3-c3ccccc3)cc2)CCC1")
2.41

* * *

List of cell viability values.
# Test system: Calu-3
# testDetails: cell viability relative to DMSO; higher = less toxic
# conditionParameters: 72 h; 10000 nM
readoutLabel: cell viability (%)

>>> reported("Cc1c(N)c(=O)n(-c2ccccc2)n1C [ampyrone]")
98.6
>>> reported("CCS(=O)(=O)N1CCN(c2ccc(Nc3ncc(C(N)=O)c(NC4CC4)n3)cc2)CC1")
128
>>> reported("COc1cc2c(cc1-c1c(C)noc1C)ncc1[nH]c(=O)n([C@H](C)c3ccccn3)c12 [I-BET151]")
65.3
>>> reported("O=C(Nc1ccccc1F)N[C@H]1N=C(c2ccccc2)c2ccccc2NC1=O [RSV604]")
89.8
>>> reported("N#C[C@@H]1C[C@@H]2C[C@@H]2N1C(=O)[C@@H](N)C12CC3CC(CC(O)(C3)C1)C2")
97.7
>>> reported("CCN1CCCC(OC(=O)C(c2ccccc2)c2ccccc2)C1 (configuration not stated) [piperidolate]")
89.3
>>> reported("COc1cccc(C(=O)CCN[C@@H](C)[C@H](O)c2ccccc2)c1 [oxyfedrine]")
107
>>> reported("CC(C)(C)n1nc(-c2ccc(Cl)cc2)c2c(N)ncnc21 [PP-2]")
37
>>> reported("O=C(Nc1cnc(Cl)nc1)c1ccc(F)c(F)c1")
103
>>> reported("COc1cc2nc(N3CCN(C(=O)c4ccco4)CC3)nc(N)c2cc1OC [prazosin]")
99.1
>>> reported("C[C@]1(O)C[C@@H](c2nc(-c3ccc4ccc(-c5ccccc5)nc4c3)c3c(N)nccn32)C1 [linsitinib]")
104
>>> reported("CC[C@H](CO)Nc1nc(Nc2cccc(-c3ccccn3)c2)c2ncn(C(C)C)c2n1 [DRF053-(R)]")
80.3
>>> reported("CCN[C@H]1C[C@H](C)S(=O)(=O)c2sc(S(N)(=O)=O)cc21 [dorzolamide]")
98.4
>>> reported("Cc1nccn1CCC(C(N)=O)(c1ccccc1)c1ccccc1 [imidafenacin]")
102
>>> reported("C=CC[N@@+]12CC[C@@]34c5ccccc5N5/C=C6/[C@H]7C[C@H]8[C@@]9(CC[N@@+]8(CC=C)C/C7=C/CO)c7ccccc7N(/C=C(/[C@@H](C[C@@H]31)/C(=C\\CO)C2)[C@H]54)[C@@H]69 [alcuronium]")
87.8
>>> reported("CCOCOC[C@H](C[C@H](C)C(=O)NO)NC(=O)c1ccc(Oc2ccccc2)cc1 [ONO-4817]")
89.2
>>> reported("CN(C(=O)Cc1ccc(Cl)c(Cl)c1)[C@H](CN1CCCC1)c1ccccc1")
28.9
>>> reported("CC(=O)Nc1ccc(C(=O)O)cc1 [acedoben]")
108
>>> reported("O=C(/C=C/c1ccc2ccccc2n1)c1ccncc1 [PFK-015]")
59.2
>>> reported("CN(C)c1ccc(-c2nc3c(N4CCN(CC(=O)Nc5nccs5)CC4)c(Cl)cnc3[nH]2)cc1")
91.5
>>> reported("C/C1=C/C[C@@H](/C(C)=C/c2csc(C)n2)OC(=O)C[C@H](O)C(C)(C)C(=O)[C@H](C)[C@@H](O)[C@@H](C)CCC1 [epothilone-D]")
54.1
>>> reported("Cc1ccccc1N1CCN(S(=O)(=O)C[C@]23CC[C@H](C[C@@H]2NC(=O)[C@@H](N)CCS(C)(=O)=O)C3(C)C)CC1")
99.5
>>> reported("CC1(C)[C@@H](OC(=O)CCC(=O)O)CC[C@]2(C)[C@H]3C(=O)C=C4[C@@H]5C[C@@](C)(C(=O)O)CC[C@]5(C)CC[C@@]4(C)[C@]3(C)CC[C@@H]12 [CARBENOXOLONE SODIUM]")
96
>>> reported("O=C(Nc1cc(C(F)(F)F)cc(C(F)(F)F)c1)c1cc(Cl)ccc1O [IKK-2-inhibitor-V]")
13.8
>>> reported("CC(=O)c1ccc2c(c1)N(CCCN(C)C)c1ccccc1S2 [acepromazine]")
83.5
>>> reported("CS[C@H]1SC[C@H]2C(=O)N(C)[C@@H](C(C)C)C(=O)OC[C@@H](NC(=O)c3cnc4ccccc4n3)C(=O)N[C@@H](C)C(=O)N(C)[C@@H]1C(=O)N(C)[C@@H](C(C)C)C(=O)OC[C@@H](NC(=O)c1cnc3ccccc3n1)C(=O)N[C@@H](C)C(=O)N2C [echinomycin]")
36.2
>>> reported("C[C@@H](CCCCC(=O)Nc1ccc(C(F)(F)F)cc1)NCCc1c[nH]cn1 [HTMT]")
100
>>> reported("CO[C@@H]1[C@H](N(C)C(=O)c2ccccc2)C[C@H]2O[C@]1(C)n1c3ccccc3c3c4c(c5c6ccccc6n2c5c31)C(=O)NC4 [midostaurin]")
43.3
>>> reported("O=C(Nc1cccnn1)N1CCC(=Cc2cccc(Oc3ccc(C(F)(F)F)cn3)c2)CC1")
84.9
>>> reported("CC(C)[N+](C)(CCC(C(N)=O)(c1ccccc1)c1ccccc1)C(C)C [isopropamide-iodide]")
87.1
>>> reported("N#Cc1ccc(N2CCN(C(=O)COc3ccc4[nH]cc(CCN)c4c3)CC2)cc1 [donitriptan]")
111
>>> reported("CC(=O)CCCCn1c(=O)c2c(ncn2C)n(C)c1=O [pentoxifylline]")
98.1

Reference source for all entries: the supplement of paper PMC13380429
